Test system: MDA-MB-231
Test: Antiproliferative activity against human MDA-MB-231 cells after 72 hrs by MTT assay
Type: functional, cell-based
Settings: MDA-MB-231, 72 h
property: pIC50
Answer as the number alone; pIC50 is minus log10 of concentration in mol/L.

C=C1C(=O)OC(CCCCCCCC)C1C(=O)O (racemic) | 4.36

Could you now look at the following compound, please?
### Prompt Read off the recorded pIC50 for C=C1C(=O)O[C@@H](CCCCCCCC)[C@@H]1C(=O)O
### Response 4.24

----------
Tested on: HCT-116
Test: Antiproliferative activity against human HCT116 cells after 72 hrs by MTT assay
Type: functional, cell-based
Details: HCT-116, 72 h
property: IC50 (µM)
Record the value in µM, omitting the unit from your answer.

C=C1C(=O)OC(CCCCCCCC)C1C(=O)O (racemic) | 46.4

### Prompt Read off the recorded IC50 for C=C1C(=O)O[C@@H](CCCCCCCC)[C@@H]1C(=O)O
### Response 74.8

----------
System: MIA PaCa-2
Test: Antiproliferative activity against human MIAPaCa2 cells after 72 hrs by MTT assay
Type: functional, cell-based
Details: MIA PaCa-2, 72 h
Recorded measurements of IC50, one per entry

C=C1C(=O)OC(CCCCCCCC)C1C(=O)O (racemic) | 21.8 µM

Could you now look at the following compound, please?
### Prompt Read off the recorded IC50 for C=C1C(=O)O[C@@H](CCCCCCCC)[C@@H]1C(=O)O
### Response 25.3 µM
